System: HFF-1 (normal human dermal fibroblasts)
protocol: WST-1 cell viability assay, normal HFF-1
Type: cell-based
experimental-conditions: WST-1, 72 h exposure, ± SD, n = 6

{"columns": ["compound", "IC50 [µM]"],
 "data": [
  ["N.N.[Cl][Pt][Cl] [CPT, cisplatin, reference compound]", 26]
]}

----------
System: A549 (human lung adenocarcinoma) cells
protocol: WST-1 cell viability assay, A549
Assay type: cell-based
experimental-conditions: WST-1, 72 h exposure, ± SD, n = 6

{"columns": ["molecule", "study-system", "IC50"],
 "data": [
  ["N.N.[Cl][Pt][Cl] [CPT, cisplatin, reference compound]", "A549 (human lung adenocarcinoma) cells", "17.3 µM"]
]}

----------
Test system: vancomycin-resistant E. faecalis VRE 342B
protocol: MIC, microtitration broth method, VRE1
Type: cell-based
experimental-conditions: Enterococcus faecalis, 24 h, 37 °C, BHI broth
# Lookup of reported MIC keyed by entry
endpoint-name: MIC (µM)

{"columns": ["structure-string", "recorded-result"],
 "data": [
  ["C#CCOc1cccc(NS(=O)(=O)c2ccc(O)c3ncccc23)c1", 362],
  ["C#CCOc1ccccc1NS(=O)(=O)c1ccc(O)c2ncccc12", 362],
  ["C#CCN(C)S(=O)(=O)c1ccc(O)c2ncccc12", 464],
  ["C#CCNS(=O)(=O)c1ccc(O)c2ncccc12", 977],
  ["C#CC(C)(C)NS(=O)(=O)c1ccc(O)c2ncccc12", 883],
  ["C#CCOc1ccc(NS(=O)(=O)c2ccc(O)c3ncccc23)cc1", 362]
]}

----------
System: methicillin-resistant S. aureus SA 630
protocol: MBC, agar aliquot subculture method, MRSA2
Type: cell-based
experimental-conditions: Staphylococcus aureus; 99.9% decrease in CFU, 24 h, 37 °C
Define the label as y when MBC is strictly less than 90 µM and as n in all remaining cases.

{"columns": ["molecule", "study-system", "class"],
 "data": [
  ["C#CCN(C)S(=O)(=O)c1ccc(O)c2ncccc12", "methicillin-resistant S. aureus SA 630", "y"],
  ["C#CCNS(=O)(=O)c1ccc(O)c2ncccc12", "methicillin-resistant S. aureus SA 630", "n"],
  ["Cc1onc(-c2ccccc2)c1C(=O)N[C@@H]1C(=O)N2[C@@H]1SC(C)(C)[C@@H]2C(=O)O [OXA, oxacillin, reference compound]", "methicillin-resistant S. aureus SA 630", "y"],
  ["C#CC(C)(C)NS(=O)(=O)c1ccc(O)c2ncccc12", "methicillin-resistant S. aureus SA 630", "n"]
]}

----------
Tested on: Enterococcus faecalis ATCC 29212
protocol: MIC, microtitration broth method, EF
Type: cell-based
experimental-conditions: ATCC29212, 24 h, 37 °C, BHI broth
# Lookup of reported MIC keyed by entry

{"columns": ["compound", "MIC / µM"],
 "data": [
  ["C#CCNS(=O)(=O)c1ccc(O)c2ncccc12 [3a]", 977],
  ["C#CCOc1ccccc1NS(=O)(=O)c1ccc(O)c2ncccc12 [3f]", 362],
  ["C#CC(C)(C)NS(=O)(=O)c1ccc(O)c2ncccc12 [3b]", 883],
  ["C#CCOc1ccc(NS(=O)(=O)c2ccc(O)c3ncccc23)cc1 [3d]", 362],
  ["C#CCOc1cccc(NS(=O)(=O)c2ccc(O)c3ncccc23)c1 [3e]", 362],
  ["CC1(C)S[C@@H]2[C@H](NC(=O)[C@H](N)c3ccccc3)C(=O)N2[C@H]1C(=O)O [AMP, ampicillin, reference compound]", 2.81],
  ["C#CCN(C)S(=O)(=O)c1ccc(O)c2ncccc12 [3c]", 464]
]}
